# experiment_description: Pharmacokinetics in mice
# Format: in vivo
# measurement_conditions: male, ICR, mouse, plasma, po, 14a, p.o. (10 mg/kg)
outcome_measure: half-life (h)

>>> quantitative_readout("O=C(NCc1ccccc1)C(=O)[C@H](C[C@@H]1CCCNC1=O)NC(=O)[C@H](Cc1ccc(F)cc1)NC(=O)c1cc2ccccc2o1 [14a]")
1.09

====

# experiment_description: Pharmacokinetics in mice
# Type: in vivo
# measurement_conditions: male, ICR, mouse, plasma, iv, 14a, i.v. (5 mg/kg)
outcome_measure: AUC(0-t)

>>> result("O=C(NCc1ccccc1)C(=O)[C@H](C[C@@H]1CCCNC1=O)NC(=O)[C@H](Cc1ccc(F)cc1)NC(=O)c1cc2ccccc2o1 [14a]")
"1220 ng·h/mL"

====

// reported pIC50 per item
# experimental_system: UniProt P07711
# experiment_description: FRET-based cleavage assay, enzymatic inhibition of human CTSL
pIC50: −log10 of the molar value.
outcome_measure: pIC50

>>> quantitative_readout("O=C(N/N=C/[C@H](C[C@@H]1CCCNC1=O)NC(=O)[C@H](Cc1ccc(F)cc1)NC(=O)c1cc2ccccc2o1)c1ccccc1 [14e]")
5.40
>>> quantitative_readout("O=C(N[C@@H](Cc1ccc(F)cc1)C(=O)N[C@H](/C=C/S(=O)(=O)c1ccccc1)C[C@@H]1CCCNC1=O)c1cc2ccccc2o1 [14c]")
7.30
>>> quantitative_readout("O=C(NCc1ccccc1)C(=O)[C@H](C[C@@H]1CCCNC1=O)NC(=O)[C@H](CC1CCCCC1)NC(=O)c1cc2ccccc2o1 [14b]")
8.16

====

# experiment_description: Pharmacokinetics in mice
# Type: in vivo
# measurement_conditions: male, CD-1, mouse, plasma, ip, 14b, i.p. (20 mg/kg), read-out: AUCINF_obs
outcome_measure: AUC(0-inf) (ng·h/mL)

>>> quantitative_readout("O=C(NCc1ccccc1)C(=O)[C@H](C[C@@H]1CCCNC1=O)NC(=O)[C@H](CC1CCCCC1)NC(=O)c1cc2ccccc2o1 [14b]")
7640

====

# experiment_description: Pharmacokinetics in mice
# Type: in vivo
# measurement_conditions: male, CD-1, mouse, plasma, ip, 14b, i.p. (20 mg/kg), read-out: MRTINF_obs
outcome_measure: MRT inf (h)

>>> quantitative_readout("O=C(NCc1ccccc1)C(=O)[C@H](C[C@@H]1CCCNC1=O)NC(=O)[C@H](CC1CCCCC1)NC(=O)c1cc2ccccc2o1 [14b]")
5.34

====

# experiment_description: Pharmacokinetics in rats
# Format: in vivo
# measurement_conditions: male, SD, rat, plasma, ip, i.p. (5 mg/kg)
outcome_measure: half-life (h)

>>> quantitative_readout("O=C(NCc1ccccc1)C(=O)[C@H](C[C@@H]1CCCNC1=O)NC(=O)[C@H](Cc1ccc(F)cc1)NC(=O)c1cc2ccccc2o1 [14a]")
4.14
>>> quantitative_readout("O=C(NCc1ccccc1)C(=O)[C@H](C[C@@H]1CCCNC1=O)NC(=O)[C@H](CC1CCCCC1)NC(=O)c1cc2ccccc2o1 [14b]")
8.24

====

# experimental_system: Human CTSL (Homo sapiens, UniProt P07711)
# Sequence (P07711 114-333): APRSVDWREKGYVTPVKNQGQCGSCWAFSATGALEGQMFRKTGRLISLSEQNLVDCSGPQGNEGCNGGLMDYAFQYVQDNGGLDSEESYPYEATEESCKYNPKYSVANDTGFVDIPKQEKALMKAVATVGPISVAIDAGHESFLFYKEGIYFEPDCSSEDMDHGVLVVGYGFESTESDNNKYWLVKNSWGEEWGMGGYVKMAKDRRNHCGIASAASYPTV
# experiment_description: FRET-based cleavage assay, enzymatic inhibition of human CTSL
Y if IC50 is below 2000 nM. N if not; exact matches included in N.

>>> assigned_label("O=C(N[C@@H](Cc1ccc(F)cc1)C(=O)N[C@H](/C=N/NC(=O)C1CCCCC1)C[C@@H]1CCCNC1=O)c1cc2ccccc2o1 [14f]")
"N"
>>> assigned_label("CC1(C)[C@@H]2[C@@H](C(=O)N[C@@H](C[C@@H]3CCCNC3=O)C(=O)C(=O)NCc3ccccc3)N(C(=O)c3cc4ccccc4o3)C[C@@H]21 [14m]")
"Y"
>>> assigned_label("O=C(N[C@@H](Cc1ccc(F)cc1)C(=O)N[C@H](/C=N/NC(=O)C1CC1)C[C@@H]1CCCNC1=O)c1cc2ccccc2o1 [14g]")
"Y"
>>> assigned_label("O=C(NCc1ccccc1)C(=O)[C@H](C[C@@H]1CCCNC1=O)NC(=O)[C@H](Cc1ccc(F)cc1)NC(=O)c1cc2ccccc2o1 [14a]")
"Y"
>>> assigned_label("O=C(N[C@@H](Cc1ccc(F)cc1)C(=O)N[C@H](/C=N/Nc1ncccn1)C[C@@H]1CCCNC1=O)c1cc2ccccc2o1 [14h]")
"Y"
>>> assigned_label("O=C(O)/C(F)=C/[C@H](C[C@@H]1CCCNC1=O)NC(=O)[C@H](CC1CCCCC1)NC(=O)c1cc2ccccc2o1 [14i]")
"N"

====

# experiment_description: Pharmacokinetics in mice
# Type: in vivo
# measurement_conditions: male, ICR, mouse, plasma, ip, 14a, intraperitoneal (10 mg/kg) as printed in the text, read-out: area under the curve (AUC)
outcome_measure: AUC (ng·h/mL)

>>> quantitative_readout("O=C(NCc1ccccc1)C(=O)[C@H](C[C@@H]1CCCNC1=O)NC(=O)[C@H](Cc1ccc(F)cc1)NC(=O)c1cc2ccccc2o1 [14a]")
1270

====

# experiment_description: Pharmacokinetics in mice
# Type: in vivo
# measurement_conditions: male, ICR, mouse, plasma, ip, 14a, i.p. (5 mg/kg)
outcome_measure: half-life (h)

>>> quantitative_readout("O=C(NCc1ccccc1)C(=O)[C@H](C[C@@H]1CCCNC1=O)NC(=O)[C@H](Cc1ccc(F)cc1)NC(=O)c1cc2ccccc2o1 [14a]")
7.01

====

# experiment_description: Pharmacokinetics in dogs
# Type: in vivo
# measurement_conditions: male, Beagle, dog, plasma, iv, i.v. (1 mg/kg)
outcome_measure: half-life (h)

>>> quantitative_readout("O=C(NCc1ccccc1)C(=O)[C@H](C[C@@H]1CCCNC1=O)NC(=O)[C@H](CC1CCCCC1)NC(=O)c1cc2ccccc2o1 [14b]")
1.07
>>> quantitative_readout("O=C(NCc1ccccc1)C(=O)[C@H](C[C@@H]1CCCNC1=O)NC(=O)[C@H](Cc1ccc(F)cc1)NC(=O)c1cc2ccccc2o1 [14a]")
1.04

====

# experiment_description: Pharmacokinetics in mice
# Type: in vivo
# measurement_conditions: male, ICR, mouse, plasma, po, 14a, p.o. (10 mg/kg)
outcome_measure: Tmax (min)

>>> quantitative_readout("O=C(NCc1ccccc1)C(=O)[C@H](C[C@@H]1CCCNC1=O)NC(=O)[C@H](Cc1ccc(F)cc1)NC(=O)c1cc2ccccc2o1 [14a]")
15

====

# experiment_description: Pharmacokinetics in mice
# Type: in vivo
# measurement_conditions: male, ICR, mouse, plasma, ip, 14a, i.p. (5 mg/kg)
outcome_measure: Cmax (ng/mL)

>>> quantitative_readout("O=C(NCc1ccccc1)C(=O)[C@H](C[C@@H]1CCCNC1=O)NC(=O)[C@H](Cc1ccc(F)cc1)NC(=O)c1cc2ccccc2o1 [14a]")
1120

====

// reported pEC50 per item
# Tested on: B.1.617.2 (Delta)
# experiment_description: microbe, parasite or virus in culture
# Assay type: cell-based
# measurement_conditions: Severe acute respiratory syndrome coronavirus 2, HEK-293T, read-out: EC50, SARS-CoV-2 B.1.617.2 (Delta)
pEC50: −log10 of the molar value.
outcome_measure: pEC50

>>> quantitative_readout("O=C(NCc1ccccc1)C(=O)[C@H](C[C@@H]1CCCNC1=O)NC(=O)[C@H](CC1CCCCC1)NC(=O)c1cc2ccccc2o1 [14b]")
9.08
>>> quantitative_readout("O=C(NCc1ccccc1)C(=O)[C@H](C[C@@H]1CCCNC1=O)NC(=O)[C@H](Cc1ccc(F)cc1)NC(=O)c1cc2ccccc2o1 [14a]")
9.10

====

# experiment_description: Pharmacokinetics in dogs
# Type: in vivo
# measurement_conditions: male, Beagle, dog, plasma, sc, s.c. (1 mg/kg)
outcome_measure: AUC(0-t) (ng·h/mL)

>>> quantitative_readout("O=C(NCc1ccccc1)C(=O)[C@H](C[C@@H]1CCCNC1=O)NC(=O)[C@H](Cc1ccc(F)cc1)NC(=O)c1cc2ccccc2o1 [14a]")
881
>>> quantitative_readout("O=C(NCc1ccccc1)C(=O)[C@H](C[C@@H]1CCCNC1=O)NC(=O)[C@H](CC1CCCCC1)NC(=O)c1cc2ccccc2o1 [14b]")
948

====

# experiment_description: Pharmacokinetics in mice
# Assay type: in vivo
# measurement_conditions: male, CD-1, mouse, plasma, ip, 14b, i.p. (20 mg/kg)
outcome_measure: AUC(0-t) (ng·h/mL)

>>> quantitative_readout("O=C(NCc1ccccc1)C(=O)[C@H](C[C@@H]1CCCNC1=O)NC(=O)[C@H](CC1CCCCC1)NC(=O)c1cc2ccccc2o1 [14b]")
7300

====

// pIC50 collected for Human CTSB (Homo sapiens)
pIC50: −log10 of the molar value.
outcome_measure: pIC50

>>> quantitative_readout("O=C(NCc1ccccc1)C(=O)[C@H](C[C@@H]1CCCNC1=O)NC(=O)[C@H](CC1CCCCC1)NC(=O)c1cc2ccccc2o1 [14b]")
9.00
>>> quantitative_readout("O=C(NCc1ccccc1)C(=O)[C@H](C[C@@H]1CCCNC1=O)NC(=O)[C@H](Cc1ccc(F)cc1)NC(=O)c1cc2ccccc2o1 [14a]")
8.91
